Read-out: Epidermal growth factor receptor (EGFR), EGFR (gene 1956)
Test: BSK_hDFCGF_EGFR: BioMAP Diversity Plus: hDFCGF Assay for Epidermal growth factor receptor (EGFR) Biomarker Activity (AID 2283057)
Conditions: primary human foreskin fibroblasts; actives raise or lower the signal
Activity calls are given as the source filed them. Rule for the calls: active = hit-call score of the fitted dose curve at least 0.9, where 1 is the maximum; inactive = score below 0.9.
One label from this list, please: active, inactive

Compound	Category Label
Cc1cnccn1	inactive
O=S(=O)(O)CCC(F)(F)C(F)(F)C(F)(F)C(F)(F)C(F)(F)C(F)(F)C(F)(F)C(F)(F)F	inactive
O=S(=O)(OCC(F)(F)F)C(F)(F)C(F)(F)C(F)(F)C(F)(F)F	inactive
NC(=O)C(F)(F)C(F)(F)C(F)(F)C(F)(F)C(N)=O	inactive
C[C@]12CC[C@H]3C(=CCc4cc(O)ccc43)[C@@H]1CCC2=O	inactive
NS(=O)(=O)C(F)(F)C(F)(F)C(F)(F)C(F)(F)C(F)(F)C(F)(F)F	inactive

Q: Tell me the recorded outcome of this test for O=C1C=CC(=O)N1c1ccc(Cc2ccc(N3C(=O)C=CC3=O)cc2)cc1 .
Result: inactive

Q: Test call for this compound, please: OCCCCC(F)(F)C(F)(F)C(F)(F)C(F)(F)F
Result: inactive

Q: Given O=C(O)C(F)(F)OC(F)(F)C(F)(F)OC(F)(F)C(F)(F)OC(F)(F)F , state the outcome it received in this test.
Result: inactive

Q: Tell me the assay call for CN(C(=O)C(F)(F)C(F)(F)C(F)(F)F)[Si](C)(C)C please.
Result: inactive

Q: Write down the call the test reported for this compound. Item: CCOC(=O)CC(=O)C(F)(F)C(F)(F)F
Result: inactive

Q: Please indicate how the test categorized CCOC(C=C(C)CCC=C(C)C)OCC .
Result: inactive

----------
Read-out: Monocyte Chemoattractant Protein-1 (MCP1), CCL2 (gene 6347)
Assay: BSK_3C_MCP1: BioMAP Diversity Plus: 3C Assay for Monocyte Chemoattractant Protein-1 (MCP1) Biomarker Activity (AID 2283017)
Conditions: primary human endothelial cells (HUVEC); actives raise or lower the signal
Activity calls are given as the source filed them. Rule for the calls: active = hit-call score of the fitted dose curve at least 0.9, where 1 is the maximum; inactive = score below 0.9.
Permitted responses: Y for active, N for inactive

Q: I'd appreciate the recorded outcome for NC(=O)C(F)(F)C(F)(F)C(F)(F)C(F)(F)C(F)(F)C(F)(F)C(F)(F)F from this test.
Result: N

Q: What did this assay record as the result for O=C(O)C(F)(F)OC(F)(F)C(F)(F)OC(F)(F)C(F)(F)OC(F)(F)F ?
Result: N

Q: Test call, this compound: O=C1C=CC(=O)N1c1ccc(Cc2ccc(N3C(=O)C=CC3=O)cc2)cc1
Result: Y

Q: Called result for CC(C)CCCC(C)CCO (stereo not drawn)
Result: Y

Q: Answer briefly: the call reported for O=C(Cl)C(F)(F)C(F)(F)C(F)(F)C(F)(F)C(F)(F)C(F)(F)C(F)(F)F in this assay.
Result: N

Q: Status in this test for OCC(O)CC(F)(F)C(F)(F)C(F)(F)C(F)(F)F (stereo not drawn) ?
Result: N

----------
Read-out: Matrix Metallopeptidase 1 (MMP1), MMP1 (gene 4312)
Assay: BSK_MyoF_MMP1: BioMAP Diversity Plus: MyoF Assay for Matrix Metallopeptidase 1 (MMP1) Biomarker Activity (AID 2284268)
Settings: primary human lung fibroblasts
Active and inactive are the calls of the source. Rule for the calls: active = hit-call score of the fitted dose curve at least 0.9, where 1 is the maximum; inactive = score below 0.9.
Would you mind answering with one of these outcomes? label 1 (active), label 0 (inactive)

# count of solved cases: 5
Compound	Category Label
OCC(O)CC(F)(F)C(F)(F)C(F)(F)C(F)(F)F (configuration not stated)	label 0
CCOC(=O)CC(=O)C(F)(F)C(F)(F)F	label 0
NCC(F)(F)C(F)(F)C(F)(F)C(F)(F)C(F)(F)C(F)(F)F	label 0
NCC(F)(F)C(F)(F)C(F)(F)C(F)(F)C(F)(F)C(F)(F)C(F)(F)C(F)(F)F	label 0
OC(O)C(F)(F)C(F)(F)F	label 0

Q: Please indicate how the test categorized O=S(=O)(Cl)C(F)(F)C(F)(F)C(F)(F)C(F)(F)C(F)(F)C(F)(F)C(F)(F)C(F)(F)F .
Result: label 0
